System: MS2 coat protein
method: apparent KD of MS2 coat protein; designed switch direction (-1 OFF switch, 1 ON switch): 1; higher = weaker reporter binding
experimental conditions: Eterna round: R95; input ligand: none
readout: apparent KD of MS2 coat protein (nM)
One number for each entry, in nM.

AGCGAAAUAAGCAAGGAUAUGUAAUUUGGCACAUGAGGAUCACCCAUGUCAAUCCAUUUUUUGGAACAGAAGGUGCAUUUUUUUU [ak third] (puzzle: Same State 2) ... 102
UGGUAACAUGAGGAUCACCCAUGUCAAAUGAAUCGAGGAUAUGGGAAUUAAUAAUAUAAACUAGAAGGCGAAUUUG [Altered State 1-6 - Jieux - Same State 1] (puzzle: Same State 1) ... 52.7
CUAUCUACAGGUGUCAUUGCUCGUCUUAUACAUGAGGAUCACCCAUGUUAUAGCCCGGUGCUUGCGCUGGGCUGAUU [JL ViennaUCT Tearor mod 5] (puzzle: Sensor for hsa-mir-208a) ... 99.9
AGUCCAGCCUGAGCUGGACAAGAGCAUGUACAUGAGGAUCACCCAUGUCAUGUACAAGCUUUUUGCUCGUCUUAAUA [Zipper 49 - 2] (puzzle: Sensor for hsa-mir-208a) ... 530

Could you now consider this next sequence?
# apparent KD of MS2 coat protein lookup, item GAGAAGAGGGACAAGGAUAUGUCAGGAGAGACAUGAGGAUCACCCAUGUAGAGGAAGAGAGAGAGACAGAAGGUGUCGAGAGCGA [JR_SS2_Sub015] (puzzle: Same State 2)
130

###

Tested on: K4 kissing-loop RNA reporter;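 note: bound reporter read as fluorescence of individual clusters on recovered sequencing chips by microscopy, with normalized cluster intensities fitted with a binding model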
method: apparent KD of K4 kissing-loop reporter; higher = weaker reporter binding
experimental conditions: Eterna round: R107; input ligand: none
# label = TRUE if apparent KD of K4 kissing-loop reporter >= 200 nM else FALSE

UACAUCGAGCAGAGUGAUGUUUUGUGCGAUACCAGCAAGUGCAAGUGCCCUUGGCAGCGCAAGCGGUUGUAUGUAGGACCGGACG [theeternabot_exclusion_KL_Theo_A_21] ... TRUE

Kindly determine if apparent KD of K4 kissing-loop reporter recorded for UGACAUUGCUCAGAUACCAGACAUGAGCAUCAGCCAUGUACCAAGAAAACGUACAUAAAUGUCCCUUGGCAGCUGAGCAAUGUCU [TheoBX 10] is above or exactly 200 nM.
FALSE

Similarly, AGACUACCACACUGUCAAUAGACAGUGAACUAGGAUAUGCUGAUAAGCAGAAGGAGUGAUGUUCCUAAUAAGGUAGUCAUAUAAU [FmnAX 15 #SwitchBubble #StaticStem #K4Early] ?
TRUE

Similarly, AACACUCACGGAGUGAUGUUCUGGAAUAAACGAGGACCGGUACGGCCGCCACUCGAAAAUGAGUGAGUCCUACGAAAAGUAGGAC [Omei inspired 4] ?
TRUE

Similarly, AGGAUCCGUCGACAAAAGUCGACAUAAUCCAAGGAUAUGACGAAAGUCAGAAGGUGGACAUAAGUCCAGUGAUGUUGGAGGAUCC [FmnA 16 #SwitchBubble #K4Late] ?
TRUE

Similarly, GUAUGUUCGAAAGAACGUACAUCUUCGGAAGGAGCGCGUGAAAACGCAGGUAGGUCGCCGAAGUUAUUAGGUAGUGAUGUUACCU [Arginine A K4 8] ?
FALSE

Similarly, CCAUUCAUUUACGAUACCAGUCUAAUAUAUUUAAUCAAAACCCUCGCCGAGUGAUGUUCGGACCCUUGGCAGCGUCUGCGACAGG [cyycmullin] ?
TRUE

###

Tested on: MS2 coat protein
method: apparent KD of MS2 coat protein; designed switch direction (-1 OFF switch, 1 ON switch): -1; higher = weaker reporter binding
experimental conditions: Eterna round: R95; input ligand: microRNA oligo, concentration not stated
readout: apparent KD of MS2 coat protein

Some solved cases for reference:
CAUCUGUGAGGAUAUGGUGAGUAGUGCCUGAGCGCUGCUCACCAGAAGGCACAUGAGGAUCACCCAUGUAUGAC [JL-ex4-2.01 denovo] (puzzle: Exclusion 4) ... 43.7 nM
CCAUCGAGUGUGAGGAUAUGCUGUUCGAAAGAGCAGCAGAAGGCACAUGAGGAUCACCCAUGUGGAUACGGUGG [Mat - Exclusion 4 - JL Mod - D82] (puzzle: Brourd's mod of Exclusion 4) ... 30.6 nM
CCUCAGUAAGGAUAUCAGCUUAUAAAGUUGGUAAUGAGAGCUGAGAAGGUACAUGAGGAUCACCCAUGUUAGUU [JL Zatite mod 5] (puzzle: Exclusion 4) ... 20.9 nM
UUGAACAUAGGAUAUAGUUGUUUGUACAUGAGGAUCACCCAUGUUAUGUAUGUUUUGUUUCUAGAAGGAUGUUGAU [JR_E5_Sub002] (puzzle: Exclusion 5) ... 32.5 nM
CGUGCGUAUGUGAGGAUAUGCUGGUCCUUGGAUCGGCAGAAGGCACAUGAGGAUCACCCAUGUGGUGUCGUUCG [salish99_Bmod_ex4_093] (puzzle: Brourd's mod of Exclusion 4) ... 126 nM
CUUUUGUGAGGAUAUUAGUAGUAAAUAAUUAAAAUUACUACUGAGAAGGCACAUGAGGAUCACCCAUGUUCCUC [salish99_ex4_r3_056] (puzzle: Exclusion 4) ... 35.2 nM
UGGGUUGUUGUGAGGAUAUACUGUUUGUUUUGUUUGUAGAAGGUACAUGAGGAUCACCCAUGUUGGUUGUGGUU [JR_BME4_Sub031] (puzzle: Brourd's mod of Exclusion 4) ... 204 nM
GAAUAUAAGCAAAGAUCCUACAUGAGGAUCACCCAUGUGCUCGUCUUAUAAAGUACUAUCACGAAAGUGAUAGUACA [Mat - Sensor v3 - turn-off var 1 - Eli Mod - D82] (puzzle: Sensor v3, turn-off variant 1) ... 25.1 nM

Look at each sequence and report its apparent KD of MS2 coat protein.
1. GAGCUAUGAGGAUAUGCAUAGAUACGGAUUCGUGUAGUACUACAUGAGGAUCACCCAUGUAGAAGGCGUGGCAG [Mat - Exclusion 2 - Mod of JL - D76] (puzzle: Exclusion 2)
2. CCAGGCAGUGUGAGGAUAUGCUGGUGGAUACAUCAGCAGAAGGCACAUGAGGAUCACCCAUGUGAAGAGCUUGG [Mat - Exclusion 4 - JL Mod - D99] (puzzle: Brourd's mod of Exclusion 4)
3. UGUGCGUAUGUGAGGAUAUGCUGGUCCUUGGCUCGGCAGAAGGCACAUGAGGAUCACCCAUGUGGUGUCGUACA [salish99_Bmod_ex4_071] (puzzle: Brourd's mod of Exclusion 4)
4. AAAAGUCCGGAGGAUAUCCACAAGCUCGGGAAAGGAGAAGGCCGGACAUGAGGAUCACCCAUGUGUCUUCUUGC [Rebila] (puzzle: Exclusion 6)

1. 13.9 nM
2. 19 nM
3. 158 nM
4. 63 nM

Look at each sequence and report its apparent KD of MS2 coat protein.
1. CUUGUUUAUGUGAGGAUAUACUGUUAGUAUAGUUUGUAGAAGGUACAUGAGGAUCACCCAUGUUUAUUACUCUU [JR_BME4_Sub046] (puzzle: Brourd's mod of Exclusion 4)
2. CUCGGACAUGAGGAUCACCCAUGUGAGGAUAUGAUGCGAUCGUCGAAAGACGAUAGCAUCAGAAGGUACAAAUG [Fiskers Ex 1 - 22] (puzzle: Exclusion 1)

11.9 nM
55.6 nM

###

System: MS2 coat protein
method: apparent KD of MS2 coat protein, switch OFF state (with FMN for OFF switches, without FMN for ON switches); designed switch direction (-1 OFF switch, 1 ON switch): -1; higher = weaker reporter binding
experimental conditions: FMN input: 0 or 200 uM; Eterna round: R93 (includes R88 designs)
readout: apparent KD of MS2 coat protein (nM)
Give bare numbers, in nM.

Some solved cases for reference:
CUCUUGUGAGGAUAUCAAAGAAAAGAAGAGAAAGAAAAGAAUGAGAAGGCACAUGAGGAUCACCCAUGUAAGAA [EteRNA is fun!] ... 59.5
AGUUGGCGAGGAUAUACAUGAGGAUCACCCAUGUGAGAGAUAAAAGUGAGAAAGAAAAGUAGAAGGCGCUCACA [JL Lego Mod 15] ... 60.1

Which measured apparent KD of MS2 coat protein belongs to AGCUAGCGAGGAUAUGCGAACAUGUCAAAAGACGUGAAGGGACAUGAGGAUCACCCAUGUAGAAGGCGCUAGCA [JL 74% mod 4] , tested on MS2 coat protein?
29.6

###

Test system: MS2 coat protein
method: apparent KD of MS2 coat protein; designed switch direction (-1 OFF switch, 1 ON switch): 1; higher = weaker reporter binding
experimental conditions: input ligand: microRNA oligo, concentration not stated
readout: apparent KD of MS2 coat protein (nM)
Give bare numbers, in nM.

Some solved cases for reference:
AAGGUGCAGGUACAGGAUAUGUUGCUCGUAACAUGAGGAUCACCCAUGUACCUAUGAGAUUAAAUGCAGAAGGGUGCACACCAAA [Mat - Same State 2 - Mod of UCT - D91] (Eterna round: R96, puzzle: Same State 2) ... 168
CUGUAUCGCGGAGGAUAUGGGCUGAGACCAGGGCAACCCUGGUCAACAUGAGGAUCACCCAUGUCCCAGAAGGCCGCGAUGCUA [Diaraenve] (Eterna round: R96, puzzle: Same State NG 2) ... 73.6

Could you now consider this next sequence?
# apparent KD of MS2 coat protein lookup, item GGUCCCUACGCACAGGAUAUUCUUUUGGCAACAUGAGGAUCACCCAUGUGUGCCGAUCAUGGUUAGAAGAAGGGUGGUAGGGACC [Usisus] (Eterna round: R96, puzzle: Same State 2)
10.5
